Origin of values: paper PMC11969024

B1: peptide HD2 (from tick evasin EVA4) / CXCL14 (biotinylated, synthetic) (parent)
chain 1: EEDDYTAYAPLTCYFT
chain 2: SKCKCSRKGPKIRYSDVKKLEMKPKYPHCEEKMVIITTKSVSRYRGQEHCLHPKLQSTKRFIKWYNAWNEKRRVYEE

# Variants of: B1
# statedConditions: with CXCL14 (biotinylated, synthetic); scale: log2
propertyLabel: enrichment

>  <mutationName>
chain 1 A9C

>  <obsValue>
-8.35

$$$$
>  <mutationName>
chain 1 C13M

>  <obsValue>
-7.78

$$$$
>  <mutationName>
chain 1 Y8H

>  <obsValue>
-5.83

$$$$
>  <mutationName>
chain 1 E2H

>  <obsValue>
-5.9

$$$$
>  <mutationName>
chain 1 Y8G

>  <obsValue>
-6.97

$$$$
>  <mutationName>
chain 1 D4G

>  <obsValue>
-4.48

$$$$
>  <mutationName>
chain 1 E1N

>  <obsValue>
-6.84

$$$$
>  <mutationName>
chain 1 C13I

>  <obsValue>
-6.44

$$$$
>  <mutationName>
chain 1 T16F

>  <obsValue>
-5.71

$$$$
>  <mutationName>
chain 1 F15T

>  <obsValue>
-5.59

$$$$
>  <mutationName>
chain 1 Y5A

>  <obsValue>
-5.33

$$$$
>  <mutationName>
chain 1 C13H

>  <obsValue>
-6.91

$$$$
>  <mutationName>
chain 1 Y5S

>  <obsValue>
-7.36

$$$$
>  <mutationName>
chain 1 E1R

>  <obsValue>
-6.24

$$$$
>  <mutationName>
chain 1 Y5T

>  <obsValue>
-5.93

$$$$
>  <mutationName>
chain 1 E1G

>  <obsValue>
-5.5

$$$$
>  <mutationName>
chain 1 P10K

>  <obsValue>
-5.23

$$$$
>  <mutationName>
chain 1 E2C

>  <obsValue>
-8.27

$$$$
>  <mutationName>
chain 1 Y5G

>  <obsValue>
-5.37

$$$$
>  <mutationName>
chain 1 E1M

>  <obsValue>
-5.07

$$$$
>  <mutationName>
chain 1 Y8S

>  <obsValue>
-8.01

$$$$
>  <mutationName>
chain 1 A7C

>  <obsValue>
-8.1

$$$$
>  <mutationName>
chain 1 Y5Q

>  <obsValue>
-3.62

$$$$
>  <mutationName>
chain 1 D3S

>  <obsValue>
-7.81

$$$$
>  <mutationName>
chain 1 C13R

>  <obsValue>
-8.81

$$$$
>  <mutationName>
chain 1 E1C

>  <obsValue>
-8.01

$$$$
